# measurement setup: in n-propanol, 308.15 K
recorded metric: solubility (mole fraction)
Output: the number by itself.

IN: Consider the compound shown here: CC(=O)OC(c1ccccc1)C(Cl)(Cl)Cl (stereo unspecified) What is its recorded solubility (mole fraction)?
OUT: 0.0287

====

# measurement setup: in acetone, 303.15 K
recorded metric: solubility (mole fraction)
No unit in the answer, only the number.

IN: # get_value(readout='solubility (mole fraction)', item= CC(=O)OC(c1ccccc1)C(Cl)(Cl)Cl (stereo unspecified) )
OUT: 0.158

====

# measurement setup: in n-propanol, 298.15 K
recorded metric: solubility (mole fraction)
# respond with the number and nothing more

IN: Quick one: solubility (mole fraction) for CC(=O)OC(c1ccccc1)C(Cl)(Cl)Cl (stereo unspecified) ?
OUT: 0.0164

====

# measurement setup: in methanol, 328.15 K
recorded metric: solubility (mole fraction)
// no unit, no text: just the number

IN: What does the data say about its solubility (mole fraction)? Entry: CC(=O)OC(c1ccccc1)C(Cl)(Cl)Cl (stereo unspecified)
OUT: 0.0447

====

# measurement setup: in acetic acid, 303.15 K
recorded metric: solubility (mole fraction)
Lab note: jot the number down without any unit.

IN: What measured solubility (mole fraction) goes with CC(=O)OC(c1ccccc1)C(Cl)(Cl)Cl (stereo unspecified) ?
OUT: 0.0482

====

# measurement setup: in acetonitrile, 293.15 K
recorded metric: solubility (mole fraction)
Write no unit; give the number alone.

IN: Which solubility (mole fraction) value belongs to CC(=O)OC(c1ccccc1)C(Cl)(Cl)Cl (stereo unspecified) ?
OUT: 0.0408

====

# measurement setup: in acetonitrile, 298.15 K
recorded metric: solubility (mole fraction)
// keep it numeric: no unit symbol after the value

IN: Which measured solubility (mole fraction) value corresponds to CC(=O)OC(c1ccccc1)C(Cl)(Cl)Cl (stereo unspecified) ?
OUT: 0.0579

====

# measurement setup: in ethanol, 323.15 K
recorded metric: solubility (mole fraction)
Give a plain numeric answer without units written out.

IN: For the molecule shown here, CC(=O)OC(c1ccccc1)C(Cl)(Cl)Cl (stereo unspecified) , give the reported solubility (mole fraction).
OUT: 0.0555

====

# measurement setup: in n-propanol, 323.15 K
recorded metric: solubility (mole fraction)
Just the number, please, no unit attached.

IN: Fill in: solubility (mole fraction) of CC(=O)OC(c1ccccc1)C(Cl)(Cl)Cl (stereo unspecified) is ___
OUT: 0.0667

====

# measurement setup: in ethyl acetate, 328.15 K
recorded metric: solubility (mole fraction)
Respond with the number and no other words.

IN: Form field: reported solubility (mole fraction) of CC(=O)OC(c1ccccc1)C(Cl)(Cl)Cl (stereo unspecified)
OUT: 0.38

====

# measurement setup: in isopropanol, 298.15 K
recorded metric: solubility (mole fraction)
The reply should be a number, written without any unit.

IN: Look up solubility (mole fraction): CC(=O)OC(c1ccccc1)C(Cl)(Cl)Cl (stereo unspecified)
OUT: 0.0129

====

# measurement setup: in ethanol, 303.15 K
recorded metric: solubility (mole fraction)
Number only, no unit.

IN: Look at this molecule and give its reported solubility (mole fraction). CC(=O)OC(c1ccccc1)C(Cl)(Cl)Cl (stereo unspecified)
OUT: 0.0171

====

# measurement setup: in methanol, 313.15 K
recorded metric: solubility (mole fraction)
Output: the number by itself.

IN: Returns the measured solubility (mole fraction) for the input compound. Input: CC(=O)OC(c1ccccc1)C(Cl)(Cl)Cl (stereo unspecified)
OUT: 0.02
